- experimentalTarget: human TLR8 (hTLR8) (Homo sapiens)
- Sequence (Q9NR97 27-1041): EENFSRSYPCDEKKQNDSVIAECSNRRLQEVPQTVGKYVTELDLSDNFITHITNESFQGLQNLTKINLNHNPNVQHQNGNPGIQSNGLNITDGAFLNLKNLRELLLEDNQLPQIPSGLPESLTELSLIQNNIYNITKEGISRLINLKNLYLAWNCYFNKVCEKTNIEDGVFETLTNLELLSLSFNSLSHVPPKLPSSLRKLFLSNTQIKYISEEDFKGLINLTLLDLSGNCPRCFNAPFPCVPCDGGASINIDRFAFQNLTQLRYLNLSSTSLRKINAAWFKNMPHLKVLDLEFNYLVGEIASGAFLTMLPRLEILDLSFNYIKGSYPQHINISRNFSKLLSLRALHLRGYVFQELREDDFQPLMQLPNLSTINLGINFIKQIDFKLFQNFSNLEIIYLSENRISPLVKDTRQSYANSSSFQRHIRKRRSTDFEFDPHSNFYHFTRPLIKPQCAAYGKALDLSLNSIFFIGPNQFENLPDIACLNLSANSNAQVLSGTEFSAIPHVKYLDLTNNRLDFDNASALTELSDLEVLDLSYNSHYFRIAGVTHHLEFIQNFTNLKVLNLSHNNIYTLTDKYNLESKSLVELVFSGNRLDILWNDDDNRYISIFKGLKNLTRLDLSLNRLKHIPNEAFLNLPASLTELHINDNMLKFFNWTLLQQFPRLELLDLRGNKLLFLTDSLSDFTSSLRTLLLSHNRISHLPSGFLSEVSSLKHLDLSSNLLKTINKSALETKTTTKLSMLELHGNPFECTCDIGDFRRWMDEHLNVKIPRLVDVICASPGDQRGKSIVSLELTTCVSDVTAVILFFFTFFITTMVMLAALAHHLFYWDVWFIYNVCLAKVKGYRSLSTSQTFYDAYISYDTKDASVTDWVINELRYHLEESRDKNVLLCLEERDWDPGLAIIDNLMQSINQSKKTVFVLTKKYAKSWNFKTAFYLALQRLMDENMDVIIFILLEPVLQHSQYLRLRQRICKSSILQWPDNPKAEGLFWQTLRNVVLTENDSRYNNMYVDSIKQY
- testSummary: Human TLR8 agonist activity assay (measured in a similar manner)
- measurementConditions: HEK-Blue TLR cells, SEAP reporter, measured in a similar manner to TLR7; some values average of multiple measurements
recordedMetric: EC50 (µM)
Answers are plain numbers, in µM.

Please review the following examples before continuing.
CCCCN(c1nc(N)nc2cn(Cc3ccc(CN4CCCCC4)cc3OC)nc12)C(C)CO (centres unmarked) [Compound 50] = 0.949
CCCCN(CCO)c1nc(N)nc2cn(Cc3ccc(CNC4CCCOC4)cc3OC)nc12 (centres unmarked) [Compound 105] = 2.78
CCCCN(CCO)c1nc(N)nc2cn(Cc3c(F)cc(CN4CC5(COC5)C4)cc3OC)nc12 = 2.26
CCCCN(CCO)c1nc(N)nc2cn(Cc3c(F)cc(CNCCOC)cc3F)nc12 = 1.83
CCCCN(CCO)c1nc(N)nc2cn(Cc3ccc(CNC[C@H]4C[C@H](O)C4)cc3OC)nc12 = 1.9
CCCCN(CCO)c1nc(N)nc2cn(Cc3ccc(CN[C@@H]4CCOC4)c4oc(C)nc34)nc12 = 0.915

Below are some molecules; for each one, tell me its EC50.
1. CCCCN(CCO)c1nc(N)nc2cn(Cc3ccc(CNC4COC4)cc3OC)nc12
2. CCCCN(CCO)c1nc(N)nc2cn(Cc3cccc4c3OCCN4C(=O)CNC3CCC3)nc12

a:
[1.14, 1.86]

---

- experimentalTarget: human TLR8 (hTLR8) (Homo sapiens, UniProt Q9NR97)
- Sequence (Q9NR97 27-1041): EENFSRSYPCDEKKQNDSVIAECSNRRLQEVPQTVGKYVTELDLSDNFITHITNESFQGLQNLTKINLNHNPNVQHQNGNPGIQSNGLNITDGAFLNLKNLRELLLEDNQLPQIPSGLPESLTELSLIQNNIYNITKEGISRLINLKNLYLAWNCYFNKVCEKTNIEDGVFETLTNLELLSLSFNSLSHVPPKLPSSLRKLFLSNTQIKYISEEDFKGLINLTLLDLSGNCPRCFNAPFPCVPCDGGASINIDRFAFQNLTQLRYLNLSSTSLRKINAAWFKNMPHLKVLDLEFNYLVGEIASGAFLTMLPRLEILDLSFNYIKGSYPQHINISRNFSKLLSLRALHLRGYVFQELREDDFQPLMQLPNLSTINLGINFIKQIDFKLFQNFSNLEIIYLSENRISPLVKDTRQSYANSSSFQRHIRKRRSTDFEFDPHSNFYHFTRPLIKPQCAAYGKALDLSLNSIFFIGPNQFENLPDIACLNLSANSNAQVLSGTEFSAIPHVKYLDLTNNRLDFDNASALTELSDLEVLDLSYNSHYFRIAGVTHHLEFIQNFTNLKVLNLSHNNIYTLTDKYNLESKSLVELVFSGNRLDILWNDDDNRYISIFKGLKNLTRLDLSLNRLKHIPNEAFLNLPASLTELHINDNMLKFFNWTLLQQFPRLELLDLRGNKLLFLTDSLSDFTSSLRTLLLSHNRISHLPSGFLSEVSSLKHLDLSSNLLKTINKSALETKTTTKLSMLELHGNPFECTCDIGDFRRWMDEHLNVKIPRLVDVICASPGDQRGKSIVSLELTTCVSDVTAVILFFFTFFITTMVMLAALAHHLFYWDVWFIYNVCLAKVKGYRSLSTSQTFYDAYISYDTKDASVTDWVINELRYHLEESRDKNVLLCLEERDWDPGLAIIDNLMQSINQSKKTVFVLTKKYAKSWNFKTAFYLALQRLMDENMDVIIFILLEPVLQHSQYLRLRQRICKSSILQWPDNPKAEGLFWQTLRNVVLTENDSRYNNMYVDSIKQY
- testSummary: Human TLR8 agonist activity assay (measured in a similar manner)
- measurementConditions: HEK-Blue TLR cells, SEAP reporter, measured in a similar manner to TLR7; some values average of multiple measurements
Cut-off 2000 nM on EC50: below means Criterion met, at or above means Criterion not met.

CCCCN(CCO)c1nc(N)nc2cn(Cc3c(F)cc(C4CCN(CCOC)CC4)cc3C#N)nc12 [Compound 149] = Criterion met

q: Determine if CCCCN(CCO)c1nc(N)nc2cn(Cc3c(F)cc(CN[C@H]4C[C@@H](OC)C4)cc3F)nc12 [Compound 118] shows EC50 strictly lower than 2000 nM.
a: Criterion not met

q: Input CCCCN(c1nc(N)nc2cn(Cc3c(F)cc(C4CCN(C5CC6(COC6)C5)CC4)cc3OC)nc12)C(C)CO (stereo not shown) [Compound 179] ; condition: EC50 strictly below 2000 nM. Does it hold?
a: Criterion met

q: Just wondering, is EC50 of CCCCN(CCO)c1nc(N)nc2cn(Cc3ccc(CN[C@H]4CCCN(C)C4)c4cccnc34)nc12 [Compound 168] below 2000 nM?
a: Criterion met

q: Determine if CCCCN(CCO)c1nc(N)nc2cn(Cc3c(F)cc(C4CCNCC4)cc3OC)nc12 [Compound 16] shows EC50 strictly lower than 2000 nM.
a: Criterion not met

q: Lab note: confirm whether the reported EC50 for this molecule is below 2000 nM, equality not counting. molecule: CCCCN(CCO)c1nc(N)nc2cn(Cc3ccc(CNC4CCC4)c4oc(C)nc34)nc12 [Compound 140]
a: Criterion met

q: For this molecule, is EC50 lower than 2000 nM? CCCCN(CCO)c1nc(N)nc2cn(Cc3c(F)cc(C4CCN(C5CCOCC5)CC4)cc3C#N)nc12 [Compound 150]
a: Criterion not met

---

What pEC50 was measured for each of the following?
- experimentalTarget: human TLR7 (hTLR7) (Homo sapiens, UniProt Q9NYK1)
- Sequence (Q9NYK1 27-1049): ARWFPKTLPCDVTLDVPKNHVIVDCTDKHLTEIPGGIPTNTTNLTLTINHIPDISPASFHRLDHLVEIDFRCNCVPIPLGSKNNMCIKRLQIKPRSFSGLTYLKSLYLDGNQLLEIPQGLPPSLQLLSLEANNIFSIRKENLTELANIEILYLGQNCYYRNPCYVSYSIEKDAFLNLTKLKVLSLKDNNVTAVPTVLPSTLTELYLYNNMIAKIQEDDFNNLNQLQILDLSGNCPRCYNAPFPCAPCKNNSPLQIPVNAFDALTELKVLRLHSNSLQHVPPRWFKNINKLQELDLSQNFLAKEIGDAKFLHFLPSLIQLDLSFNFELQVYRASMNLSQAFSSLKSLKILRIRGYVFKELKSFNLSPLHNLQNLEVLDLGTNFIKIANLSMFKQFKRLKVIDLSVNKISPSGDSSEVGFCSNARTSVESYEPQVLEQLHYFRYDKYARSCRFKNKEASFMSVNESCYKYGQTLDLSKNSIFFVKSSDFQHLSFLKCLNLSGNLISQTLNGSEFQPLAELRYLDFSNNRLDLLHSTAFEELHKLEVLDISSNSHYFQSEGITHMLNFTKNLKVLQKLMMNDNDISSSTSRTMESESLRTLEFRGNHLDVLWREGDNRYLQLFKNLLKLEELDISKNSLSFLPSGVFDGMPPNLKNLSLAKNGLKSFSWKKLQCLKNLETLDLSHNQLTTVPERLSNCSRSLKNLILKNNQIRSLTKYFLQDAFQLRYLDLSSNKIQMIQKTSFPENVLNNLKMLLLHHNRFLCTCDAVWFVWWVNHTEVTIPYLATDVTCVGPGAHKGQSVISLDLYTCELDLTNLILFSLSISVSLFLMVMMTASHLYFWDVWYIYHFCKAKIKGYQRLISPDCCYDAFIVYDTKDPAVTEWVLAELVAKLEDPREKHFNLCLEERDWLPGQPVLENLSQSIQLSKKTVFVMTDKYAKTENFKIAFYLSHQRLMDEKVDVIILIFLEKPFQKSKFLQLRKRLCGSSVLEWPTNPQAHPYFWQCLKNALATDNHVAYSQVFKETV
- testSummary: Human TLR7 agonist activity assay (HEK-Blue TLR7 SEAP reporter)
- measurementConditions: HEK-Blue TLR7 cells, 18 h incubation, Quanti-Blue, OD 620 nm, some values average of multiple measurements
- Procedure: This procedure describes a method for assaying human TLR7 (hTLR7) and human TLR8 (hTLR8) agonist activity of the compounds disclosed herein. HEK-Blue™ TLR7 cells were added to each well of a 384-well tissue-culture plate (15,000 cells per well) and incubated 16-18 h at 37° C., 5% CO2. Compounds (100 nL) were dispensed into wells containing the HEK-Blue™ TLR cells and the treated cells were incubated at 37° C., 5% CO2. […] SLAP levels were measured using an Envision plate reader (OD=620 nm). […]
Numbers only, as −log10 of the molar value.

Please review the entries below; each comes with its answer.
CCCCN(CCO)c1nc(N)nc2cn(Cc3c(F)cc(C4CCN(C5CCOCC5)CC4)cc3C#N)nc12 = 5.95
CCCCN(CCO)c1nc(N)nc2cn(Cc3ccc(CNC(C)(C)C)n4ncnc34)nc12 = 6.10
CCCCN(CCO)c1nc(N)nc2cn(Cc3ccc(CO)n4ncnc34)nc12 = 6.02

Below are some molecules; for each one, tell me its pEC50.
1. CCCCN(CCO)c1nc(N)nc2cn(Cc3ccc(CNC(C)(C)C)cc3C(F)F)nc12
2. CCCCN(CCO)c1nc(N)nc2cn(Cc3ncc(CNC(C)(C)C)cc3OC)nc12
3. CCCCN(CCO)c1nc(N)nc2cn(Cc3c(F)cc(C4CCN(C(C)C)CC4)cc3C#N)nc12
4. CCCCNCc1ccc(Cn2cc3nc(N)nc(N(CCO)CCCC)c3n2)c(OC)c1
5. CCCCN(CCO)c1nc(N)nc2cn(Cc3ccc(CN4CC(CCOC)C4)c4cccnc34)nc12

a:
1: 5.92; 2: 5.87; 3: 6.21; 4: 6.18; 5: 6.74
